Test system: OVCAR-5 ovarian
test name: NCI-60 one-dose screen, 48 h
condition summary: 10 µM unless noted
Compounds without any hit were thinned out: in the full panel of roughly 83,000, 20% have a hit. Calls of active or inactive are those of the source. Rule for the calls: active = growth percent below 10; inactive = the rest.
Select the correct class. Options are label 1 = active, label 0 = inactive and nothing else.

Below are worked cases with known answers.
>  <compound>
CCCCOc1nc2ccccc2cc1C1CNC(=O)c2ccccc2N1 (stereo not given)

>  <class name>
label 0

$$$$
>  <compound>
OC(c1cccc(-n2ccc(C(F)(F)F)n2)c1)c1cnccc1NC1CCCCCC1 (stereo not given)

>  <class name>
label 0

$$$$
>  <compound>
COc1ccc(/C=C/c2c(C(=O)/C=C/c3cccs3)c(C)nc3ccccc23)cc1

>  <class name>
label 0

$$$$
>  <compound>
COc1ccc(-c2nc3ccc4[nH]ncc4c3c3c2CCCC3)cc1B(O)O

>  <class name>
label 0

$$$$

Hi, sorry to bother you, what did the test record for "O=C(O)CN1C(=O)CCC1=O" ?
label 0

Would you mind telling me which call this test gave "N#Cc1c(N)nn(C(=O)c2ccc(NC(=O)c3ccccn3)cc2)c1-c1ccc(Cl)cc1" ?
label 0

Outcome? "CCN(CC)CCN1C(=O)c2c(c(C)c3c(oc4cc(O)ccc43)c2C)C1=O"
label 1

Tell me the assay call for "NC(=S)N/N=C/Cc1ccccc1" please.
label 0

Please indicate how the test categorized "COC(=O)[C@]12CC[C@@H](C)[C@H](C)[C@@H]1C1=CC[C@@H]3[C@@]4(C)C(C=O)=C[C@@](C)(COC(=O)c5ccco5)C4=CC[C@@]3(C)[C@]1(C)CC2" .
label 1

Name the outcome recorded for "O=C(Nc1ccccc1)Nc1cccc(Oc2nnc(Cl)c3ccccc23)c1" in the assay.
label 0

* * *

Tested on: SF-268 CNS
test name: NCI-60 one-dose screen, 48 h
condition summary: 10 µM unless noted
About 83,000 compounds went through this panel and 20% of them were active in at least one assay; those are over-represented in the sample as a whole. Calls of active or inactive are those of the source. How the source made its calls: active means growth percent below 10; inactive means the rest.
Your response should consist of one outcome taken from active, inactive

>  <compound>
COc1cccc(-c2nn(-c3ccccc3)cc2-c2ccnc(NCCNC(=O)Nc3cccc(C(F)(F)F)c3)c2)c1

>  <class name>
inactive

$$$$
>  <compound>
CN(C)CC1=NC2SC=C(c3ccccc3)C2C(=O)N1CC#N (stereo not given)

>  <class name>
inactive

$$$$
>  <compound>
CCCCn1c(=O)c2c(nc3n2CCCN3CCc2ccc(OCC(=O)NCCN(CC)CC)cc2)n(CCCC)c1=O

>  <class name>
inactive

$$$$
>  <compound>
Cc1cc(C)c2c(-c3nnc(N)s3)cc(=O)oc2c1

>  <class name>
inactive

$$$$
>  <compound>
COc1ccc(-c2csc(C3=C(O)CN(C(C)C)C3=N)n2)cc1OC

>  <class name>
inactive

$$$$
>  <compound>
COc1cc(Cn2ncc3ccc(NC(=O)c4cc5ccccc5oc4=N)cc32)cc(OC)c1OC

>  <class name>
inactive

$$$$

Please indicate how the test categorized "S=C(Cc1ccc2c(c1)CCCC2)N1CCOCC1" .
inactive

State the result this test recorded for "COc1ccc(NC(=O)CSc2nnc(-c3cc(-c4ccccc4)nc4ccccc34)n2-c2ccccc2)cc1" .
inactive

For CCCCCCCOc1c(OC)cc(C2CC(=O)Nc3c2c(C)nn3-c2nc3ccccc3[nH]2)cc1OC (stereo not given) , which call appears in the assay record?
active

Called result for "CCCCCCCC/C=C\CCCCCCCCOc1ccccc1CC(=O)NCC[N+](C)(C)C"
inactive
